The molecules listed here are annotated with their melting point.
Structures can show the parent of a compound that is named as a salt.

Answered examples (3):
molecule | melting point
N=C(NCCCCC1CCN(CCO)CC1)NC(=O)c1nc(Cl)c(N)nc1N (as salt: hydrochloride) [compound 25193, dihydrochloride] | 168 to 170 °C
N=C(NCCCCCCCCN)NC(=O)c1nc(Cl)c(N)nc1N (as salt: hydrochloride) [compound 19336, dihydrochloride] | 253 to 255 °C
CC(C)(C)OC(=O)NCCCOCCCNC(=N)NC(=O)c1nc(Cl)c(N)nc1N | 62 to 65 °C (dec.)

In the following, a different molecule is considered.
Query: I am curious: what melting point value has been reported for N=C(N)NCCCCCCCCCCNC(=N)NC(=O)c1nc(Cl)c(N)nc1N (as salt: hydrochloride) [compound 23608, dihydrochloride] ?
Result: 156 to 158 °C

====

The molecules listed here are annotated with their melting point.
Where a name gives a salt, the structure may show the parent alone.

molecule | melting point
CN(C)C(=O)COc1ccc(CCCCNC(=N)NC(=O)c2nc(Cl)c(N)nc2N)cc1 (as salt: hydrochloride) [compound 16313] | 130 to 132 °C (dec.)
N=C(NCCCCCCCN)NC(=O)c1nc(Cl)c(N)nc1N [compound 18705] | 185 to 187 °C (dec.)

In the following, a different molecule is considered.
Query: I am curious: what melting point value has been reported for N=C(N)NCCCCCCCCNC(=N)NC(=O)c1nc(Cl)c(N)nc1N (as salt: hydrochloride) [compound 19604, dihydrochloride] ?
Result: 130 to 132 °C

The measured values listed here are drawn from patent US20050090505A1.
